Listed next: entries and their corresponding MIC.
System: Mycobacterium kansasii
Assay: In vitro inhibition of Mycobacterium Kansasi (My 6 509/96) growth after 14 days culture.
Assay type: functional
Settings: 336 h
Quick note: give the figure in µM, leave out the unit.

compoundSmiles: N#Cc1ccc(CSc2nc3ccccc3s2)cc1
valueUnits: µM
reported: 32

Exercise: Which MIC is reported for this molecule? N#Cc1cccc(CSc2nc3ccccc3o2)c1
Key: 62

* * *

Test system: Mycobacterium kansasii
Test: In vitro inhibition of Mycobacterium Kansasi (My 235/80) growth after 14 days culture.
Assay type: functional
Details: 336 h
recordedEndpoint: MIC (µM)
Quick note: give the figure in µM, leave out the unit.

Solved entries (count: 5):
compoundSmiles: O=[N+]([O-])c1ccccc1CSc1nc2ccccc2s1
reported: 125
--
compoundSmiles: N#Cc1cccc(CSc2nc3ccccc3s2)c1
reported: 250
--
compoundSmiles: Sc1nc2ccccc2o1
reported: 1000
--
compoundSmiles: O=[N+]([O-])c1ccc(CSc2nc3ccccc3o2)cc1
reported: 32
--
compoundSmiles: N#Cc1ccc(CSc2nc3ccccc3s2)cc1
reported: 250

From here, focus on the item given below.
Exercise: Which MIC is reported for this compound? c1ccc(CSc2nc3ccccc3o2)cc1
Key: 250

* * *

System: Mycobacterium kansasii
Assay: In vitro inhibition of Mycobacterium Kansasi (My 235/80) growth after 21 days culture.
Type: functional
Details: 504 h
Rule: measured MIC below 100 µM gets 1; anything equal to or greater than 100 µM gets 0.

Example results:
compoundSmiles: N#Cc1cccc(CSc2nc3ccccc3o2)c1
targetEntity: Mycobacterium kansasii
assignedClass: 0

compoundSmiles: O=[N+]([O-])c1ccccc1CSc1nc2ccccc2o1
targetEntity: Mycobacterium kansasii
assignedClass: 0

compoundSmiles: Sc1nc2ccccc2o1
targetEntity: Mycobacterium kansasii
assignedClass: 0

compoundSmiles: O=[N+]([O-])c1cc(CSc2nc3ccccc3o2)cc([N+](=O)[O-])c1
targetEntity: Mycobacterium kansasii
assignedClass: 1

compoundSmiles: O=[N+]([O-])c1cccc(CSc2nc3ccccc3s2)c1
targetEntity: Mycobacterium kansasii
assignedClass: 0

Exercise: is_below(MIC, 100 µM) for c1ccc(CSc2nc3ccccc3o2)cc1 ?
Key: 0

Exercise: is_below(MIC, 100 µM) for N#Cc1ccc(CSc2nc3ccccc3s2)cc1 ?
Key: 0

Exercise: is_below(MIC, 100 µM) for N#Cc1cccc(CSc2nc3ccccc3s2)c1 ?
Key: 0

Exercise: is_below(MIC, 100 µM) for NC(=S)c1ccc(CSc2nc3ccccc3s2)cc1 ?
Key: 1

Exercise: is_below(MIC, 100 µM) for O=[N+]([O-])c1ccc(CSc2nc3ccccc3s2)c([N+](=O)[O-])c1 ?
Key: 1

* * *

Listed next: entries and their corresponding MIC.
Test system: Mycobacterium kansasii
Assay: In vitro inhibition of Mycobacterium Kansasi (My 235/80) growth after 14 days culture.
Format: functional
Details: 336 h
Quick note: give the figure in µM, leave out the unit.

Solved entries (count: 8):
compoundSmiles: NC(=S)c1cccc(CSc2nc3ccccc3s2)c1
valueUnits: µM
MIC: 16
//
compoundSmiles: NC(=S)c1ccc(CSc2nc3ccccc3o2)cc1
valueUnits: µM
MIC: 16
//
compoundSmiles: O=[N+]([O-])c1ccc(CSc2nc3ccccc3s2)c([N+](=O)[O-])c1
valueUnits: µM
MIC: 8
//
compoundSmiles: NC(=S)c1ccc(CSc2nc3ccccc3s2)cc1
valueUnits: µM
MIC: 8
//
compoundSmiles: O=[N+]([O-])c1cc(CSc2nc3ccccc3s2)cc([N+](=O)[O-])c1
valueUnits: µM
MIC: 16
//
compoundSmiles: O=[N+]([O-])c1ccccc1CSc1nc2ccccc2o1
valueUnits: µM
MIC: 125
//
compoundSmiles: O=[N+]([O-])c1cc(CSc2nc3ccccc3o2)cc([N+](=O)[O-])c1
valueUnits: µM
MIC: 4
//
compoundSmiles: N#Cc1cccc(CSc2nc3ccccc3o2)c1
valueUnits: µM
MIC: 62

From here, focus on the item given below.
Exercise: Entry N#Cc1ccc(CSc2nc3ccccc3o2)cc1 , system Mycobacterium kansasii: what MIC was measured?
Key: 32
